Data provenance: paper PMC11486593

# system_under_test: ShhN/heparin binding (Homo sapiens)
# Sequence (Q15465 24-197): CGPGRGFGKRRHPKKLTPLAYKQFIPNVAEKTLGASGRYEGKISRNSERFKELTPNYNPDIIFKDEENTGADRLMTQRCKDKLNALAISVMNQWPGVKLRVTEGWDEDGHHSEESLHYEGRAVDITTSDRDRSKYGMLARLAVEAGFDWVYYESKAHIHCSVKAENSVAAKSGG
# experimental_details: Solid-phase ShhN/heparin binding assay
value_kind: IC50 (µM)
Give bare numbers, in µM.

What the record says about O=C1NC(=S)N(c2ccc(F)cc2)C(=O)C1=Cc1ccco1 : IC50 is 17.5

----------
# system_under_test: ShhN protein (Homo sapiens, UniProt Q15465)
# Sequence (Q15465 24-197): as above
# experimental_details: Protein thermal shift assay
# Type: binding
# condition_label: ShhN 1–2 μM; compounds 1.56 to 50 μM
value_kind: Tm shift (ΔTm) on binding to ShhN

In the examples that follow, each entry is paired with its recorded Tm shift (ΔTm) on binding to ShhN.
1. O=C(C[C@@H]1C/C=C/CCC(=O)O[C@H](c2ccccc2)CNC1=O)NCc1ccc(Cl)cc1 [Robotnikinin, reference compound] :: 0.85 °C
2. CCc1ccc(C2=C/C(=C/c3ccco3)C(=O)O2)cc1 :: 1.58 °C
3. O=C(NCCNC1CCCC1)c1cccs1 :: 0.85 °C

What the record says about Cc1ccc(C(=O)Nc2ccc(S(=O)(=O)O)c3cc(S(=O)(=O)O)cc(S(=O)(=O)O)c23)cc1NC(=O)c1cccc(NC(=O)Nc2cccc(C(=O)Nc3cc(C(=O)Nc4ccc(S(=O)(=O)O)c5cc(S(=O)(=O)O)cc(S(=O)(=O)O)c45)ccc3C)c2)c1 [Suramin, reference compound] : Tm shift (ΔTm) on binding to ShhN is 0.73 °C
